Values compiled from patent US7772241B2.

test system: SK-MEL-28; test: Inhibition of cells growth by colorimetric (SRB) assay, SK-MEL-28; conditions: read-out: MEL-28 LC50; SRB assay, 48 hours exposure
readout_label: CC50

Give the reported CC50 for this compound. CSc1nccc(-c2c3c(O)ccnc3n3c(N)nccc23)n1 [Compound 95] ≥ 30.8 µM

###

system: IGROV-1; test: Inhibition of cells growth by colorimetric (SRB) assay, IGROV-1; conditions: Homo sapiens, IGROV-1, 48 h, read-out: IGROV LC50, SRB assay, 48 hours exposure
Recorded CC50 by entry
Give the value in µM but do not write µM after it.

Use these answered entries as a reference point.
# compound, CC50 (µM)
measured = [
    ("Cl.Nc1nccc(-c2c3c(Cl)ccnc3n3c(N)nccc23)n1 [Compound 83]", 26),
    ("CSc1nccc(-c2c3cccnc3n3c(NC(C)=O)nccc23)n1 [Compound 69]", 28.5),
    ("CSc1nccc(-c2c3cccnc3n3c(N)nccc23)n1.Cl [Compound 68]", 29),
    ("CSc1nccc(-c2c3cccnc3n3c(N(C(C)=O)C(C)=O)nccc23)n1 [Compound 26]", 9.25),
    ("CSc1nccc(-c2c3c(O)ccnc3n3c(N)nccc23)n1.Cl [Compound 97]", 27),
]

Quickly give me recorded CC50 for CSc1nccc(-c2c3c(N)ccnc3n3c(N)nccc23)n1.Cl [Compound 93] 25.2

Dear colleague, please send me the reported CC50 for CSc1nccc(-c2c3c(Cl)ccnc3n3c(N)nccc23)n1.Cl [Compound 108] when you can. 26.4

Dear colleague, please send me the reported CC50 for CS(=O)(=O)c1nccc(-c2c3cccnc3n3c(N)nccc23)n1 [Compound 73] when you can. 29.4

Indicate the recorded CC50 value for this compound: Nc1nccc(-c2c3cccnc3n3c(N)nccc23)n1 [Deoxyvariolin 4, deoxyvariolin B, reference compound] 1.32

###

Attribute: CC50
tested on: LoVo; assay: Inhibition of cells growth by colorimetric (SRB) assay, LoVo; conditions: Homo sapiens, LoVo, 48 h, read-out: LOVO LC50, SRB assay, 48 hours exposure
Reply with just the number (in µM).

Please review the entries below; each comes with its answer.
# structure_as_smiles, CC50, µM
data = [
    ("CSc1nccc(-c2c3c(Cl)ccnc3n3c(N)nccc23)n1.Cl", 4.85),
    ("CS(=O)(=O)c1nccc(-c2c3cccnc3n3c(N)nccc23)n1", 29.4),
    ("CSc1nccc(-c2c3cccnc3n3c(N(C(C)=O)C(C)=O)nccc23)n1", 2.03),
]

Note: attention shifts to another entry.
State CC50 on LoVo. Entry: CSc1nccc(-c2c3c(N)ccnc3n3c(N)nccc23)n1.Cl 17.4

###

test system: LoVo; assay: Inhibition of cells growth by colorimetric (SRB) assay, LoVo; settings: Homo sapiens, LoVo, 48 h, read-out: GI50 LOVO, SRB assay, 48 hours exposure
Strictly below 2000 nM in GI50: True. Otherwise: False.

Please check: GI50 for CSc1nccc(-c2c3cccnc3n3ccccc23)n1 , strictly under 2000 nM or not? False

###

tested on: HT-29; assay: Inhibition of cells growth by colorimetric (SRB) assay, HT-29; settings: Homo sapiens, HT-29, 48 h, read-out: LC50 HT-29, SRB assay, 48 hours exposure
readout_label: CC50 (µM)
Please state the figure in µM; there is no need to write the unit.

Below, 5 compounds whose answers are already recorded.
# structure_as_smiles, measured_target, unit_string, CC50
records = [
    ("CSc1nccc(-c2c3c(N)ccnc3n3c(N)nccc23)n1", "HT-29", "µM", 30.9),
    ("Nc1nccc(-c2c3cc(Cl)cnc3n3c(N)nccc23)n1", "HT-29", "µM", 32.1),
    ("CSc1nccc(-c2c3cc(F)c(Cl)nc3n3c(SC)nccc23)n1", "HT-29", "µM", 25.5),
    ("COC(=O)C(C(=O)OC)c1nccc(-c2c3cccnc3n3c(N)nccc23)n1", "HT-29", "µM", 25.5),
    ("CS(=O)(=O)c1nccc(-c2c3c(OCc4ccccc4)ccnc3n3c(N)nccc23)n1", "HT-29", "µM", 22.4),
]

Now for the compound whose CC50 we want.
Report its CC50 with HT-29 as the test system: CCOc1nccc(-c2c3c(OCc4ccccc4)ccnc3n3c(N)nccc23)n1 24.2
